- System: LAETG (Abz-LAETGK(Dnp)-CONH2)
- assay.name: In vitro sortase kinetics HPLC assay, LAETG substrate
- Assay type: biochemical
- experimental.parameters: 1 mM 2A (LAETG) substrate
Each entry below carries its recorded Khydrolysis.
Report only the number, with the unit µM understood.

Just so you know, measured Khydrolysis for eSrtA(2A-5): 5mut + R99H A104H K138I K162R I182V (protein) QAKPQIPKDKSKVAGYIEIPDADIKEPVYPGPATREQLNHGVSFHEENESLDDQNISIAGHTFIDRPNYQFTNLKAAKIGSMVYFKVGNETRKYKMTSIRNVRPTAVEVLDEQKGKDKQLTLVTCDDYNEETGVWETRKIFVATEVK came out at 615.9

Just so you know, measured Khydrolysis for 2A.6B: 5mut + R99K A104H K138V D160K* K162R I182V (protein) QAKPQIPKDKSKVAGYIEIPDADIKEPVYPGPATREQLNKGVSFHEENESLDDQNISIAGHTFIDRPNYQFTNLKAAKVGSMVYFKVGNETRKYKMTSIRKVRPTAVEVLDEQKGKDKQLTLVTCDDYNEETGVWETRKIFVATEVK came out at 12.49

Just so you know, measured Khydrolysis for 2A.6C: 5mut + A104H K138P K152I D160K* K162R I182V (protein) QAKPQIPKDKSKVAGYIEIPDADIKEPVYPGPATREQLNRGVSFHEENESLDDQNISIAGHTFIDRPNYQFTNLKAAKPGSMVYFKVGNETRIYKMTSIRKVRPTAVEVLDEQKGKDKQLTLVTCDDYNEETGVWETRKIFVATEVK came out at 12.49

Just so you know, measured Khydrolysis for 2A.6A: 5mut + A104H K138V K162R I182V (protein) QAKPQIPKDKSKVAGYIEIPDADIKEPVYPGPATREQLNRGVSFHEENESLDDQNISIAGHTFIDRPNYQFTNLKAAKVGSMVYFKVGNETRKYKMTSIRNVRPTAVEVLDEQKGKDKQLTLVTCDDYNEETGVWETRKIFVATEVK came out at 135.8
